What EC50 was measured for each of the following?
Biological target: T1, Full length human PD1 (huPD1) on cells (human, UniProt Q15116 25-288)
T1 construct: on T cells of human donors in the MLR and CMV assays (functional); also called PD-1 on Jurkat cells
T1 sequence (Q15116 25-288 limits assumed): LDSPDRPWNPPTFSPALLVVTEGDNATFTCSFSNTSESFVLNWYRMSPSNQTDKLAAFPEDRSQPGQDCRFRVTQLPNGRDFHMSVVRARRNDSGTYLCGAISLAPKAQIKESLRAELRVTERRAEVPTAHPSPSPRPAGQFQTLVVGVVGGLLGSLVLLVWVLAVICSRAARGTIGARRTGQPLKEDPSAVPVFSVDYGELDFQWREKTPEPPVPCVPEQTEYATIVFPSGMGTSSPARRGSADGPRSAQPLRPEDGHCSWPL
Assay: flow cytometry, PHA-stimulated Jurkat cells
Give bare numbers, in µg/mL.

PD1B71 (antibody, V domains shown, Tested as IgG2sigma/kappa; also called PD1H108/PH9L3) VH: QVQLVQSGAEVKKPGSSVKVSCKASGGTFSSYAISWVRQAPGQGLEWMGGIIPIFGTANYAQKFQGRVTITADESTSTAYMELSSLRSEDTAVYYCARGTLDRTGHLDYWGQGTLVTVSS VL: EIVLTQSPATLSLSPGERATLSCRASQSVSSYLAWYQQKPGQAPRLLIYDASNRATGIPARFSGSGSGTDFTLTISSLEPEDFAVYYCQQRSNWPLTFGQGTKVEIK    0.13
PD1B11 (antibody, V domains shown, Tested as IgG2sigma/kappa; also called PD1H3/PH9L3) VH: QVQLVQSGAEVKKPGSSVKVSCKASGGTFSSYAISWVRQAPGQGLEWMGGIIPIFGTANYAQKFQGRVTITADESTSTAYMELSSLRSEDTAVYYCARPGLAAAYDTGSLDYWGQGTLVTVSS VL: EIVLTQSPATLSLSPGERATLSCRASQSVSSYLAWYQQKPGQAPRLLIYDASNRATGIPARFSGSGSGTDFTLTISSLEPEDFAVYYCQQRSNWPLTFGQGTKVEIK    0.05
PD1B164 (antibody, human IgG2, kappa, V domains shown, IgG2sigma/kappa; VH 42, VL 53; also called PD1H131/PD1L71) VH: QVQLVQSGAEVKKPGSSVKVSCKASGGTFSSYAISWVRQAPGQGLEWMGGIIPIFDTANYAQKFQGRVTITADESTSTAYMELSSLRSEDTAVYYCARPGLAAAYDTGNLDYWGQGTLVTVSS VL: EIVLTQSPATLSLSPGERATLSCRASQSVRSYLAWYQQKPGQAPRLLIYDASYRATGIPARFSGSGSGTDFTLTISSLEPEDFAVYYCQQRDYWPLTFGQGTKVEIKR    0.06
PD1B183 (antibody, human IgG2, kappa, V domains shown, IgG2sigma/kappa; VH 43, VL 54; also called PD1H3/PD1L109) VH: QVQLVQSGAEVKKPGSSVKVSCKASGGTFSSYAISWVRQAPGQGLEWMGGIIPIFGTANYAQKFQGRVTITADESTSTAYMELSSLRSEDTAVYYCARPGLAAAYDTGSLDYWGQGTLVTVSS VL: EIVLTQSPATLSLSPGERATLSCRASQSVSSYLAWYQQKPGQAPRLLIKDASNRATGIPARFSGSGSGTDFTLTISSLEPEDFAVYYCQQRGYWPLTFGQGTKVEIKR    0.08
PD1B185 (antibody, human IgG2, kappa, V domains shown, IgG2sigma/kappa; VH 43, VL 55; also called PD1H3/PD1L132) VH: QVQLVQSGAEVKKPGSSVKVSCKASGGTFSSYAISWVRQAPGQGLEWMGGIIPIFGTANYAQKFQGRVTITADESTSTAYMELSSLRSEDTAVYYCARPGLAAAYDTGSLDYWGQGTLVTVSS VL: EIVLTQSPATLSLSPGERATLSCRASQSVRNYLAWYQQKPGQAPRLLIYDASDRATGIPARFSGSGSGTDFTLTISSLEPEDFAVYYCQQRWNWPLTFGQGTKVEIKR    0.09

Shift focus to the following entry.
Looking for the measured EC50 of PD1B160 (antibody, human IgG2, kappa, V domains shown, IgG2sigma/kappa; VH 42, VL 51; also called PD1H131/PD1L101) VH: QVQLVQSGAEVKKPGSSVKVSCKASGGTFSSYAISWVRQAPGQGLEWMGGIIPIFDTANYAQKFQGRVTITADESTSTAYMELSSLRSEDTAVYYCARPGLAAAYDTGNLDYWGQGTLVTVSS VL: EIVLTQSPATLSLSPGERATLSCRASQSVDSYLAWYQQKPGQAPRLLIKDASDRATGIPARFSGSGSGTDFTLTISSLEPEDFAVYYCQQRGNWPLTFGQGTKVEIKR , can you help? 0.08

// provenance: patent US20210277110A1
